Where do these numbers come from? They come from patent US20160318844A1.

assay: in vivo
conditionParameters: both, beagle, dog, inhaled or intranasal, 16 ug/kg
metricName: Cmax (ng/mL)
Return type: number; implicit unit ng/mL.

Prompt: Sample CCCCC[C@H](O)CC[C@@H]1[C@H]2Cc3cccc(OCC(=O)O)c3C[C@H]2C[C@H]1O [Treprostinil] — what was its Cmax?
Response: 5.9

* * *

Listing: EC50 of selected molecules
assayedSystem: EP2 prostanoid receptor (Homo sapiens)
Construct: host or cells: CHO-K1
Sequence (P43116 whole entry): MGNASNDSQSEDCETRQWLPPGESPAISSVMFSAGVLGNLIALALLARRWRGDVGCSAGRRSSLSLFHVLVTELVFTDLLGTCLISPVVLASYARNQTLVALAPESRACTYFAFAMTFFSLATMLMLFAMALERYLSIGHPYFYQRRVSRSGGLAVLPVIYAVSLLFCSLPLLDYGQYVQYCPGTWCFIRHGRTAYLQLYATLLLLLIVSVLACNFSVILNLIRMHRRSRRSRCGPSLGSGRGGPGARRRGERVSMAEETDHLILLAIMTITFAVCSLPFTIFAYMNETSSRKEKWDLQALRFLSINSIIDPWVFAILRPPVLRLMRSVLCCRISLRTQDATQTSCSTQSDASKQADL
assay: GloSensor cAMP assay in CHO-K1 cells co-transfected with the EP2 receptor
Assay type: cell-based
conditionParameters: EC50 (μM) 1.0 hr, 1.0 hr incubation time
Return type: number; implicit unit µM.

Recorded results for 3 molecules are shown here.
CCCCC[C@H](O)CC[C@@H]1[C@H]2Cc3cccc(OCC(=O)O)c3C[C@H]2C[C@H]1O [Treprostinil]; 0.28
CCCCC[C@H](O)CC[C@@H]1[C@H]2Cc3cccc(OCC(=O)OCC)c3C[C@H]2C[C@H]1O [Compound C2-TR, treprostinil ethyl ester]; 2.27
CCCCCCCCOC(=O)COc1cccc2c1C[C@H]1C[C@@H](O)[C@H](CC[C@@H](O)CCCCC)[C@H]1C2 [Compound C8-TR, treprostinil octyl ester]; 3.39

Please look at the following molecule next.
Prompt: Sample CCCCCCCCCCCCOC(=O)COc1cccc2c1C[C@H]1C[C@@H](O)[C@H](CC[C@@H](O)CCCCC)[C@H]1C2 [Compound C12-TR, dodecyl-treprostinil] — what was its EC50?
Response: 5.35
